Measured GI50 of individual entries
system: TK-10 renal; experiment: NCI tumour cell line growth inhibition, 48 h

{"Molecular string": "COc1ccc2c(c1)c(-c1nonc1-c1cn(C)c3ccccc13)cn2C", "GI50": "2260 nM"}
{"Molecular string": "O=C(O)c1ccc2nc(-c3ccc(OCCCCCOc4ccc(-c5nc6ccc(C(=O)O)cc6[nH]5)cc4)cc3)[nH]c2c1", "GI50": "> 100000 nM"}
{"Molecular string": "c1ccc(-c2n(Cc3ccc4ccccc4n3)cc[n+]2Cc2ccc3ccccc3n2)cc1", "GI50": "5380 nM"}
{"Molecular string": "COc1ccc2c3c([nH]c2c1)C(=O)c1nc(C)ccc1C3=O", "GI50": "> 100000 nM"}
{"Molecular string": "CN1CCN(CCOc2ccc(-c3cnc4c(-c5cccc(F)c5F)cnn4c3)cc2)CC1", "GI50": "2010 nM"}
{"Molecular string": "Cc1cc(Cl)ccc1Nc1nc(C(F)(F)F)ccc1C(=O)N/N=C/c1cccc(O)c1", "GI50": "2450 nM"}
